Assay: Evaluation of Brain-Penetration and Bone-Seeking Properties of the Labeled Compound in Mouse
Format: in vivo
Details: male ICR mouse, intravenous, 2 min, thighbone
Experimental: Separated HPLC fractions containing [^18F] THK-702, [^18F] THK-761, [^18F] THK-763 or [^18F] […] Saline containing [^18F] […] THK-763 was administered by intravenous injection through the tail vein of male ICR mouse (6 to 7 week), and brain-penetration and bone-seeking properties of each labeled compound was evaluated in the terms of seeking property of radioactivity in brain-tissue and bone tissue at 2, 30, 60 minutes after the injection. […]
Measured bone radioactivity, listed per entry for reference.
Give the value, in units of % ID/g, as a plain number.

Solved cases below.
- compound: "CN(C)c1ncc(/C=C/c2nc3ccc(OC(CO)CF)cc3o2)s1 (stereo not shown) [[^18F]THK-763]"
  unit-label: "% ID/g"
  bone radioactivity: 1.84
- compound: "OCC(CF)Oc1ccc2nc(/C=C/c3cnc(N4CCOCC4)s3)oc2c1 (stereo not shown) [[^18F]THK-702]"
  unit-label: "% ID/g"
  bone radioactivity: 1.95
- compound: "CN(C)c1ncc(C=Cc2nc3ccc(OCCF)cc3o2)s1 [[^18F]BF-227, reference compound]"
  unit-label: "% ID/g"
  bone radioactivity: 1.59

Inquiry: Which bone radioactivity is listed for CNc1ncc(/C=C/c2nc3ccc(OC(CO)CF)cc3o2)s1 (stereo not shown) [[^18F]THK-761] ?
Reply text: 1.36

Numbers sourced from patent US7910579B2.
